melting point listing for selected compounds.

These recorded examples may help you get a feel for the data.
{"compound": "Nc1cc(SC(F)(F)F)cc(Br)c1N", "melting point": "60 to 61 °C"}
{"compound": "CCOC(=O)COc1cc(C)sc1C#N", "melting point": "58 °C"}
{"compound": "CCOC(=O)N1CCc2nc3c(O)c(Br)cc(Br)c3c(C)c2CC1", "melting point": "179 °C"}
{"compound": "COc1cc(OC)c2c(=O)[nH]c(-c3cc(C)c(OCCN4CCC4)c(C)c3)nc2c1", "melting point": "204 to 205 °C"}
{"compound": "COc1ccc(Cn2nnc(-c3ccc(C(F)(F)F)cc3F)c2N)cc1", "melting point": "153 to 154 °C"}
{"compound": "CCCCc1ncc(/C=C(\\Cc2cccs2)C(=O)O)n1Cc1ccccc1OC", "melting point": "186 to 187 °C"}

Enquiry: Form field: reported melting point of `COc1ccc(-c2nc3c(N)cccc3n2Cc2c(F)cccc2F)c(F)c1`
Return: 200 to 202 °C

Enquiry: For CCCCC(C(=O)Nc1c(C(C)C)cccc1C(C)C)C1c2ccccc2Oc2ccccc21 (centres undefined) then?
Return: 188 to 189 °C

Enquiry: For `CN1CCN(C(=O)c2c(Br)c(Br)c([N+](=O)[O-])c3c2OCCO3)CC1` then?
Return: 164 °C

###

endpoint.name: melting point (°C)

{"compound": "CC(Oc1ccc2nc(N)sc2c1)c1cc(F)cc(F)c1 (stereo not given)", "melting point / °C": 132}
{"compound": "CN(C1CCSCC1)S(=O)(=O)c1ccc(Nc2nccc(Nc3ccc(F)cc3)n2)cc1", "melting point / °C": 182}

###

melting point listing for selected compounds.

{"compound": "COc1ccccc1C=CCN1CCc2nc(N)sc2CC1", "melting point": "80 to 84 °C"}
{"compound": "N#Cc1cc(N=Nc2cc(Cl)ccc2Cl)ccc1N", "melting point": "250 °C"}
{"compound": "O=S(=O)(NCC1CCN(C[C@H]2COc3ccc(Cl)cc3O2)CC1)c1ccc(F)cc1F", "melting point": "119 to 121 °C"}
{"compound": "O=C1Nc2ccc([N+](=O)[O-])cc2C(=O)N2CCC[C@@H]12", "melting point": "259 to 261 °C"}
{"compound": "Nc1nc(-c2cc(Cl)ccc2Cl)nc(N2CCC(CO)CC2)n1", "melting point": "173 to 175 °C"}

Enquiry: Form field: reported melting point of CCCCOCCOc1ccc(-c2ccc3c(c2)C=C(C(=O)Nc2ccc(C(O)c4cc(C)ccn4)cc2)CCN3C(=O)C(F)(F)F)cc1 (centres undefined)
Return: 101 to 105 °C

Enquiry: For `O=C(NCCCCCO)c1cc([N+](=O)[O-])cc([N+](=O)[O-])c1Cl` then?
Return: 100 to 103 °C

Enquiry: For `CCOP(=O)(CCCCCCCOc1nc(-c2ccccc2)c(-c2ccccc2)n1-c1ccccc1)OCC` then?
Return: 76 to 77 °C

Enquiry: For `CS(=O)(=O)N(C(=O)c1ccccc1)c1cc2occc(=O)c2cc1Oc1ccccc1` then?
Return: 164 to 166 °C

###

melting point listing for selected compounds.

Enquiry: Form field: reported melting point of `CCOC(=O)C(C)(C(=O)OCC)c1ccc(N)c(C(C(=O)OC)C(=O)OC)c1`
Return: 91 to 92 °C

Enquiry: For COc1ccc2c3c(oc2c1)CC(C(=O)O)CC3 (centres undefined) then?
Return: 175 to 180 °C

Enquiry: For `CC(C)(C)OC(=O)N[C@@H]1C(=O)N(OCC(=O)OCc2ccc([N+](=O)[O-])cc2)[C@@H]1COC(N)=O` then?
Return: 189 to 191 °C

Enquiry: For CCS(=O)(=O)c1ccc(C(=O)NCc2ccc3c(c2)C(=O)N(C2CCC(=O)NC2=O)C3=O)cc1 (centres undefined) then?
Return: 182 to 184 °C

Enquiry: For CCC(c1oc2ccccc2c(=O)c1-c1ccc(F)cc1)n1cnc2c(N)ncnc21 (centres undefined) then?
Return: 223 to 227 °C

Enquiry: For `CCOC(=O)C1=C(N)NC(N)=C(C(=O)OCC)C1c1cccc(C#N)c1` then?
Return: 176 °C

Enquiry: For `CC(C)(Cn1c(CO)nc2c(N)nc3ccccc3c21)NC(=O)C1CCCCC1` then?
Return: 248 to 250 °C

Enquiry: For COC(=O)[C@H]1C[C@H](NC(=O)c2cccc(CNC(=O)OC(C)(C)C)c2)c2c(Cl)cc(Cl)cc2N1 (relative stereo) then?
Return: 222 to 223 °C

Enquiry: For `Nc1nc2c(s1)CCN(CC1=Cc3ccccc3C1)CC2` then?
Return: 134 to 138 °C

###

melting point listing for selected molecules.

{"chemical.smiles": "Cc1cccc(-c2[nH]c(C(C)C)nc2-c2ccc(F)c(-c3ccc(S(C)(=O)=O)cn3)c2)n1", "melting point": "105 to 108 °C"}

Enquiry: Form field: reported melting point of `COc1ccc2c(c1)C(=NN)Cc1c(C#N)cccc1S2`
Return: 186 to 187 °C

Enquiry: For `O=[N+]([O-])c1ccc(OCc2ccccc2)cc1Cl` then?
Return: 82 to 84.5 °C

Enquiry: For `Cc1c(N)ccn2nc(-c3ccccc3)nc12` then?
Return: 213 to 215 °C

Enquiry: For `COC(=O)c1ccc(OCCN)cc1` then?
Return: 53 to 55.5 °C

Enquiry: For `Cc1c(N)ccc([N+](=O)[O-])c1Cl` then?
Return: 134 to 138 °C

###

melting point listing for selected compounds.

These recorded examples may help you get a feel for the data.
{"compound": "C#CCn1c2ccc(Br)cc2c2cc(Br)ccc21", "melting point": "193 to 194 °C"}
{"compound": "CCOC(=O)C(O)=Cc1ccc(Oc2ccccc2)nn1", "melting point": "127 to 128 °C"}
{"compound": "Nc1ncnc2c1c(-c1cccc(CO)c1)nn2Cc1oc2ccccc2c(=O)c1-c1ccccc1", "melting point": "219 to 223 °C"}
{"compound": "Oc1ccc(-n2nnnc2C2CC2)cc1", "melting point": "184 °C"}

In the following, a different compound is considered.
Enquiry: Form field: reported melting point of CC1Cc2ccc(Br)cc2C(c2ccc([N+](=O)[O-])cc2)=NN1C(=O)C(F)(F)F (stereo not given)
Return: 193 to 196 °C

###

endpoint.name: melting point

Enquiry: Form field: reported melting point of `CC(C)(C)c1ccc(S(=O)(=O)Nc2ncnc(OCCO)c2Br)cc1`
Return: 146 to 148 °C

Enquiry: For `N#CC(C#N)=Cc1ccc(O)c(O)c1` then?
Return: 225 °C

Enquiry: For `C1=Cc2cc3ccccc3cc2CS1` then?
Return: 84 °C

Enquiry: For COC(=O)CCC1(NC(=O)c2cc3c4ccccc4n(C(C)=O)c3cn2)C(=O)N(c2ccccc2)c2ccccc21 (stereo unspecified) then?
Return: 189 to 192 °C

Enquiry: For `Nc1cc(NC(=O)c2cc3cc(C(F)(F)F)ccc3n2Cc2cccc(F)c2)ccn1` then?
Return: 225 to 226 °C

Enquiry: For CCS(=O)(=O)NC1CCCOc2c(C)cc(Cl)cc21 (stereo unspecified) then?
Return: 144 to 145 °C

Enquiry: For CCOC(=O)CCC1(NC(=O)c2ccc(Cl)c(Cl)c2)C(=O)N(CCCc2ccccc2)c2ccccc21 (stereo unspecified) then?
Return: 120 to 122 °C

Enquiry: For `CC(=O)Nc1ccc(Sc2cccnc2)cc1` then?
Return: 138 to 140 °C

Enquiry: For `COC(=O)[C@H]1O[C@H]1C(=O)N(CC(=O)OC(C)(C)C)c1ccc(OC)cc1` then?
Return: 89 °C

Enquiry: For `CCCNC(=O)Nc1nc(-c2cc(C)cc(C)c2)c(-c2ccncc2)s1` then?
Return: 128 to 130 °C

Enquiry: For `Fc1ccc(-c2c[nH]cn2)cc1` then?
Return: 130 to 132 °C

###

melting point listing for selected compounds.

{"compound": "Clc1cc(N2Cc3ccccc3C2)nc2ccccc12", "melting point": "172 to 173 °C"}

Enquiry: Form field: reported melting point of CN(Cc1ccccc1)C(Cc1ccccc1)C(=O)O (stereo unspecified)
Return: 214 to 215 °C

Enquiry: For `CC(C)Oc1cc(CCC(=O)O)n(Cc2ccc(C(F)(F)F)cc2Cl)n1` then?
Return: 122 °C

Enquiry: For `COC(=O)C(=CN(C)C)N(C)c1nc(-c2ccc(Cl)cc2)cs1` then?
Return: 177 to 178 °C

Enquiry: For S=C=NCCC1CC(c2ccccc2)=NO1 (stereo unspecified) then?
Return: 54 to 56 °C

Enquiry: For `Cc1cccc(Nc2ccccc2C(=O)NO)c1C` then?
Return: 124 to 125 °C

Enquiry: For CC(C)(C)OC(=O)CN1CC(c2ccco2)SCC(N2C(=O)c3ccccc3C2=O)C1=O (stereo unspecified) then?
Return: 158 to 161 °C
